Experimental protocol: Pharmacokinetics of 25HC3S in alcoholic hepatitis patients (Phase 2a, IV infusion)
Type: in vivo, human
Condition description: human, plasma, iv, 90 mg, Moderate AH, cohort 2A, 90 mg IV infusion, N=3; read-out: CL (converted)
Measured quantity: clearance (mL/min)
Give the value in mL/min but do not write mL/min after it.

C[C@H](CCCC(C)(C)O)[C@H]1CC[C@H]2[C@@H]3CC=C4C[C@@H](OS(=O)(=O)O)CC[C@]4(C)[C@H]3CC[C@]12C [25HC3S, 5-cholesten-3,25-diol, 3-sulfate] has a reported clearance of 110

----------
Experimental protocol: Pharmacokinetics of 25HC3S in alcoholic hepatitis patients (Phase 2a, IV infusion)
Format: in vivo, human
Condition description: human, plasma, iv, 30 mg, Severe AH, cohort 1B, 30 mg IV infusion, N=4
Measured quantity: Cmax (ng/mL)
Give the value in ng/mL but do not write ng/mL after it.

C[C@H](CCCC(C)(C)O)[C@H]1CC[C@H]2[C@@H]3CC=C4C[C@@H](OS(=O)(=O)O)CC[C@]4(C)[C@H]3CC[C@]12C [25HC3S, 5-cholesten-3,25-diol, 3-sulfate] has a reported Cmax of 1340
